# System under test: T1, EsCas13d, nuclease-dead (Eubacterium siraeum, UniProt B0MS50, R295A;H300A;R849A;H854A)
# T1 sequence: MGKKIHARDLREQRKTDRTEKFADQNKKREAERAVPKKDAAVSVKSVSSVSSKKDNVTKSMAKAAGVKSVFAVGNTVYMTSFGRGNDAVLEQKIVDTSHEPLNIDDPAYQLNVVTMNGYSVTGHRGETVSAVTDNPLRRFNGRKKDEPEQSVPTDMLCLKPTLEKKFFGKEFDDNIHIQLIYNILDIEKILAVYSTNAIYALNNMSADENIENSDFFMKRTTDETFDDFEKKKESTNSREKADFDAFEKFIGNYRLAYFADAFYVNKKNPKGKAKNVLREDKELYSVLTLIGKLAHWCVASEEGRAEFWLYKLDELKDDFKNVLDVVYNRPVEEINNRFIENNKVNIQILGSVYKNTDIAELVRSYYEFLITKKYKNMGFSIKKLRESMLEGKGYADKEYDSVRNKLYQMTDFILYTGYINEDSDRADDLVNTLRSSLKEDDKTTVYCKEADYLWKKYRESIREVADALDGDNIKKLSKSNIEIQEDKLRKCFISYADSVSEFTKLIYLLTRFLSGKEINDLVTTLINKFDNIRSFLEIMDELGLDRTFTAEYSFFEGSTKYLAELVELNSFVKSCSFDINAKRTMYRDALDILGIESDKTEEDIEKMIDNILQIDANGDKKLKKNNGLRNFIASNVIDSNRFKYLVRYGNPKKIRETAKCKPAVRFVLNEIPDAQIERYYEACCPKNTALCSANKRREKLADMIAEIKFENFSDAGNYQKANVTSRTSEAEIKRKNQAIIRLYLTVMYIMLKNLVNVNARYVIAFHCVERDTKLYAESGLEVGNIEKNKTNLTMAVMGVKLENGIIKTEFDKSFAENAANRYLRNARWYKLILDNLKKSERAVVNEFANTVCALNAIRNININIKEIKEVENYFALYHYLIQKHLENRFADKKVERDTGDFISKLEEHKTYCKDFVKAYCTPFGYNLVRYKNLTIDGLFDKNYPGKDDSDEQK
# Run description: crRNA (strand 1, pre-loaded); Mg2+; 40 mM Tris-HCl pH 7.5, 150 mM NaCl, 6 mM MgCl2, 1 mM DTT, 0.1% Tween-20, 0.2 mg/ml BSA; 25 C; 10 min per concentration, then washed
# Assay setup: tags: His6-TwinStrep-SUMO cleaved; N-terminal SNAP kept (SNAP-Surface 488); label: 3' end held by stalled T7 RNA polymerase
Threshold-based label: Kd under 30 nM gives Yes, Kd not under 30 nM gives No.

target 2 MT 5'PFS UAG 3'PFS CUG (mixed) RNA 1: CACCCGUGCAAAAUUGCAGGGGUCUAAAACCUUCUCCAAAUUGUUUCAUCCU RNA 2: GGGAAUGGAUCCACAUCUACGAAUUCUAGAGGAUGAAACAAUUUGGAGAAGCUGAGAUCGGAAGAGCACACGU: Yes

Strictly below 30 nM: is that where Kd of target 3 insC 3' of 20,insA 3' of 6 (mixed) RNA 1: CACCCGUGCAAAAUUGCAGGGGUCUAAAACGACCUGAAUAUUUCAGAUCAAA RNA 2: GGGAAUGGAUCCACAUCUACGAAUUCGUUUUUCGAUCUGAAAUAUUCAAGGUCUGCAGAUCGGAAGAGCACACGU sits? No

Does the reported Kd of the following binder sit strictly below 30 nM? target 1 G5C,A18U (mixed) RNA 1: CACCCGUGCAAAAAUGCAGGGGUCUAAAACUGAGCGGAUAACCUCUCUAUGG RNA 2: GGGAAUGGAUCCACAUCUACGAAUUCGUACCAUUGAGAGGUUAUCCCCUCACCGAGAUCGGAAGAGCACACGU Yes

# strict comparison: is reported Kd < 30 nM? input = target 1 MT 5'PFS UCG 3'PFS CGA (mixed) RNA 1: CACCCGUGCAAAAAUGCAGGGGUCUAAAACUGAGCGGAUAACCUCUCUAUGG RNA 2: GGGAAUGGAUCCACAUCUACGAAUUCUCGCCAUAGAGAGGUUAUCCGCUCACGAAGAUCGGAAGAGCACACGU No

Hello, I'm reviewing records and need to know if Kd of target 2 MT 5'PFS UUA 3'PFS AUA (mixed) RNA 1: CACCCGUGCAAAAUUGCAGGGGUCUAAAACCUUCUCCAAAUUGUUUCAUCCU RNA 2: GGGAAUGGAUCCACAUCUACGAAUUCUUAAGGAUGAAACAAUUUGGAGAAGAUAAGAUCGGAAGAGCACACGU is below 30 nM. Could you check? Yes

I'd appreciate it if you could check whether target 1 U8C,G13A (mixed) RNA 1: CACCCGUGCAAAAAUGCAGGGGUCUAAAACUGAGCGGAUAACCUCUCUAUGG RNA 2: GGGAAUGGAUCCACAUCUACGAAUUCGUACCAUAGAGAAGUUACCCGCUCACCGAGAUCGGAAGAGCACACGU has Kd smaller than 30 nM. No

Lab note: confirm whether the reported Kd for this binder is below 30 nM, equality not counting. binder: target 1 complement block 10-12 (mixed) RNA 1: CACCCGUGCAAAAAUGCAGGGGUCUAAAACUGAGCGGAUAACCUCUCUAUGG RNA 2: GGGAAUGGAUCCACAUCUACGAAUUCGUACCAUAGAGAGCAAAUCCGCUCACCGAGAUCGGAAGAGCACACGU Yes

Does the reported Kd of target 2 MT 5'PFS AUA 3'PFS CAC (mixed) RNA 1: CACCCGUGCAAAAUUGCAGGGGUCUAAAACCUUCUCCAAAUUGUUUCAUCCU RNA 2: GGGAAUGGAUCCACAUCUACGAAUUCAUAAGGAUGAAACAAUUUGGAGAAGCACAGAUCGGAAGAGCACACGU stay below 30 nM? Yes
